- Test system: RKO
- protocol.details: Growth inhibition of human RKO cells after 48 hrs by CCK-8 assay
- Format: functional, cell-based
Active and inactive are the calls of the source. No cut-off for these calls is given here.
reported.endpoint: growth inhibition (GI)

Consider the reported growth inhibition (GI) for these compounds:
compound=CC(=O)O[C@H]1/C2=C/[C@@H](C)C(=O)C[C@H]3[C@@H](C[C@@H](C)C(=O)[C@H]2C[C@H]1C)C3(C)C target_or_system=RKO experimental_value=inactive
compound=CC(=O)O[C@H]1/C2=C/[C@@H](C)C(=O)C[C@H]3[C@@H](/C=C(\C)C(=O)[C@@]2(O)C[C@H]1C)C3(C)C target_or_system=RKO experimental_value=inactive
compound=C=C(C)[C@@H]1/C=C/[C@@H](C)C(=O)[C@H]2C[C@@H](C)[C@@H](OC(C)=O)/C2=C/[C@](C)(O)C(=O)C1 target_or_system=RKO experimental_value=inactive
compound=CC(=O)O[C@H]1/C2=C/[C@@H](C)C(=O)C[C@H]3[C@@H](/C=C(\C)C(=O)[C@H]2C[C@H]1C)C3(C)C target_or_system=RKO experimental_value=inactive
compound=C/C1=C/C2=C(C[C@@H](C)C2)C(=O)[C@@]2(C)C(=O)CC(C)(C)[C@@H]2CC1=O target_or_system=RKO experimental_value=inactive
compound=C=C(C)[C@@H]1/C=C/[C@@H](C)C(=O)[C@H]2C[C@@H](C)[C@@H](OC(C)=O)/C2=C/[C@@H](C)C(=O)C1 target_or_system=RKO experimental_value=inactive
compound=C=C(C)[C@@H]1/C=C/[C@@H](C)C(=O)[C@H]2C[C@@H](C)[C@@H](OC(C)=O)[C@H]2/C=C(/C)C(=O)C1 target_or_system=RKO experimental_value=inactive
compound="C/C1=C/[C@]23O[C@H]2[C@H](C)CC3C(=O)[C@]2(C)C(=O)CC(C)(C)[C@H]2CC1=O (stereo partly drawn)" target_or_system=RKO experimental_value=inactive
compound=CC(=O)O[C@H]1C2=C[C@@H](C)C(=O)[C@H]3[C@H]4[C@@H](C[C@@H](C)[C@]3(O)[C@H]2C[C@H]1C)C4(C)C target_or_system=RKO experimental_value=inactive
compound=C/C1=C/C2=C(C[C@H](C)C2)C(=O)[C@@]2(C)C(=O)CC(C)(C)[C@@H]2CC1=O target_or_system=RKO experimental_value=inactive

// each compound listed below needs its growth inhibition (GI)
1. C=C1CC[C@H]2[C@@H](c3c(C)c(O)c4c(c31)C(=O)[C@@H](C)C4)C2(C)C
2. C=C(C)[C@@H]1/C=C/[C@@H](C)C(=O)[C@H]2C[C@@H](C)[C@@H](O)/C2=C/[C@@H](C)C(=O)C1
3. C=C1CC[C@H]2[C@@H](c3c(C)c(O)c4c(c31)C(=O)[C@H](C)C4)C2(C)C

**Result**
["inactive", "inactive", "inactive"]
